Target: ABL1 (human) (UniProt P00519)
Sequence (P00519 whole entry, looked up): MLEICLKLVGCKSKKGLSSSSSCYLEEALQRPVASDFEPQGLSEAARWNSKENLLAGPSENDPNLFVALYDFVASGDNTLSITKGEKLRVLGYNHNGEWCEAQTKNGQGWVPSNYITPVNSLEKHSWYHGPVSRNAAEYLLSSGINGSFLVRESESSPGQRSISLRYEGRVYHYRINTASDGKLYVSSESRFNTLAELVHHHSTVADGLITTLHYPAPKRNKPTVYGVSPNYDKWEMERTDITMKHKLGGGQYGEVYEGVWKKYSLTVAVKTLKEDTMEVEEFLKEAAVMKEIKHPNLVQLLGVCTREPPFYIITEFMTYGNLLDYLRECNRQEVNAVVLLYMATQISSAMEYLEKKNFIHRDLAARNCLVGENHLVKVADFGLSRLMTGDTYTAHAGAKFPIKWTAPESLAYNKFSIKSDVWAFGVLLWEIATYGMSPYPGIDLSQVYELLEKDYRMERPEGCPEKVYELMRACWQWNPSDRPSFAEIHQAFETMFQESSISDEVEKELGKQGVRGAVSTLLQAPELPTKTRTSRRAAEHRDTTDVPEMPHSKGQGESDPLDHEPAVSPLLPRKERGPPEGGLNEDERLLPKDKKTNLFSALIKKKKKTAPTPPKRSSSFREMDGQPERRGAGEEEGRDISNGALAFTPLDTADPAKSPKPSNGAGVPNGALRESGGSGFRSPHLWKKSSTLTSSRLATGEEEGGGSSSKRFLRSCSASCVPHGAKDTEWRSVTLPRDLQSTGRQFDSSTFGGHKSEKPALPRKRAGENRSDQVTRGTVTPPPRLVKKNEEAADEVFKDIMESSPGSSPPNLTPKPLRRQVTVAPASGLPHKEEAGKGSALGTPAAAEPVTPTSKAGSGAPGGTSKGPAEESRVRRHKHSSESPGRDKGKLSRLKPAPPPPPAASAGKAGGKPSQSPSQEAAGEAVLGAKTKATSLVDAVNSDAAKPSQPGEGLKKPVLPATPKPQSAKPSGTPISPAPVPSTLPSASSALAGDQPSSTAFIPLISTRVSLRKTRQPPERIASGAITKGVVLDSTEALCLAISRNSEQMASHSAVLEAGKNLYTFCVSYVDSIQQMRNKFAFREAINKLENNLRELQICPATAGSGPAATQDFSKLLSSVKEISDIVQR
Experiment: radiometric filter-binding kinase assay, Kinase HotSpot
Details: compound 0.5 µM; ATP 10 µM
measured_metric: residual activity (%)
The response must be a number in % with no trailing unit.

// residual activity lookup, compound = O=C(Nc1cccc(Nc2cc(Nc3cccc(C(F)(F)F)c3)ncn2)c1)C1CC1 , result: 103

// residual activity lookup, compound = O=C1NC(=O)C(c2c[nH]c3ccccc23)=C1c1c[nH]c2ccccc12 , result: 89.1

// residual activity lookup, compound = Cn1nc2c3c(cccc31)C(=O)c1ccccc1-2 , result: 99.1

// residual activity lookup, compound = COc1cc2ncnc(N3CCN(C(=O)Nc4ccc(Oc5ccccc5)cc4)CC3)c2cc1OC , result: 97.4

// residual activity lookup, compound = O=C1NC(=O)C(c2cn(CCCO)c3ncccc23)=C1c1cnccn1 , result: 98.9
